Tested on: 556581-035-R-J1 tumor spheroid viability, % test/control
assay protocol: Anticancer human tumor 556581-035-R-J1 patient-derived ovarian carcinoma cell line growth inhibition
stated conditions: curve of first compound; second compound 0.0949 µM; spheroids with HUVEC and MSC
# reported IC50; entries follow
Just the number in µM, nothing appended.

compound	target system	result units	recorded value
Cc1sc2c(c1C)C(c1ccc(Cl)cc1)=NC(CC(=O)Nc1ccc(O)cc1)c1nnc(C)n1-2 (stereo not given) + CC[C@@]1(O)C(=O)OCc2c1cc1n(c2=O)Cc2cc3c(CN(C)C)c(O)ccc3nc2-1	556581-035-R-J1 tumor spheroid viability, % test/control	µM	0.281
Cc1cc(C)c(CNC(=O)c2cc(-c3ccc(CN4CCOCC4)cc3)cc3c2cnn3C2CCCC2)c(=O)[nH]1 + CC[C@@]1(O)C(=O)OCc2c1cc1n(c2=O)Cc2cc3c(CN(C)C)c(O)ccc3nc2-1	556581-035-R-J1 tumor spheroid viability, % test/control	µM	4.51

Switching to the query record.
[in] Lab note: need IC50 for O=C(c1cc(Cc2n[nH]c(=O)c3ccccc23)ccc1F)N1CCN(C(=O)C2CC2)CC1 + CC[C@@]1(O)C(=O)OCc2c1cc1n(c2=O)Cc2cc3c(CN(C)C)c(O)ccc3nc2-1 on 556581-035-R-J1 tumor spheroid viability, % test/control, anyone have it?
[out] 6.48

###

Test system: 556581-035-R-J1 tumor spheroid viability, % test/control
assay protocol: Anticancer human tumor 556581-035-R-J1 cell line growth inhibition;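 also: spheroids exposed to compounds for 7 days before viability read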
stated conditions: curve of first compound; second compound 94.9 pM; spheroids with HUVEC and MSC
pIC50: −log10 of the molar value.
property label: pIC50

# annotated cases, reported pIC50 shown
molecule	property label	recorded value
Cn1ncnc1[C@H]1c2n[nH]c(=O)c3cc(F)cc(c23)N[C@@H]1c1ccc(F)cc1 + COc1cc2c(cc1O)CCNC21CSC2c3c(OC(C)=O)c(C)c4c(c3C(COC1=O)N1C(O)C3Cc5cc(C)c(OC)c(O)c5C(C21)N3C)OCO4	pIC50	< 5.52
[2H]c1nc(C)nc([2H])c1-c1cc(NC[C@@H](C)c2cccc3c(C(=O)NC)ccnc23)ncn1 + COc1cc2c(cc1O)CCNC21CSC2c3c(OC(C)=O)c(C)c4c(c3C(COC1=O)N1C(O)C3Cc5cc(C)c(OC)c(O)c5C(C21)N3C)OCO4	pIC50	< 5.00

[in] Please give the measured pIC50 for this molecule: Cc1sc2c(c1C)C(c1ccc(Cl)cc1)=NC(CC(=O)Nc1ccc(O)cc1)c1nnc(C)n1-2 (stereo not drawn) + COc1cc2c(cc1O)CCNC21CSC2c3c(OC(C)=O)c(C)c4c(c3C(COC1=O)N1C(O)C3Cc5cc(C)c(OC)c(O)c5C(C21)N3C)OCO4
[out] < 5.52

###

# reported viability, T/C; entries follow
Test system: 556581-035-R-J1 tumor spheroid viability, % test/control
assay protocol: Anticancer human tumor 556581-035-R-J1 cell line growth inhibition;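 also: spheroids exposed to compounds for 7 days before viability read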
stated conditions: second compound 1 µM; first compound 0.0316 µM; stronger effect = lower value; spheroids with HUVEC and MSC
Method: Multicellular complex tumor spheroid response to DNA repair inhibitors in combination with DNA-damaging drugs This study explores the anticancer activities of DNA-damaging drugs and inhibitors of DNA damage repair, both as single agents and in combinations. […] Twenty-six patient-derived or established malignant cell lines were evaluated representing sarcoma, melanoma, small cell lung cancer (SCLC), non-small cell lung cancer (NSCLC), as well as bladder, ovarian and pancreatic cancers. […]
Just the number in %, nothing appended.

# annotated cases, reported viability, T/C shown
> print(dat)
                                   compound  recorded.value
1  COc1cc(C)[nH]c(=O)c1CN1CCc2c(Cl)cc(C(OC)C3COC3)c(Cl)c2C1=O (centres undefined) + Cn1nnc2c(C(N)=O)ncn2c1=O             105
2  Cc1cc(C)c(CNC(=O)c2cc(-c3ccc(CN4CCOCC4)cc3)cc3c2cnn3C2CCCC2)c(=O)[nH]1 + Cn1nnc2c(C(N)=O)ncn2c1=O             105
3  [2H]c1nc(C)nc([2H])c1-c1cc(NC[C@@H](C)c2cccc3c(C(=O)NC)ccnc23)ncn1 + Cn1nnc2c(C(N)=O)ncn2c1=O             111

Switching to the query record.
[in] Please give the measured viability, T/C for this compound: COc1ccc([C@@H](O)c2cc(-c3ncnc4cc(N5CCOCC5)ccc34)c(F)cc2Cl)nn1 + Cn1nnc2c(C(N)=O)ncn2c1=O
[out] 115

###

# reported IC50; entries follow
System: 556581-035-R-J1 tumor spheroid viability, % test/control
assay protocol: Anticancer human tumor 556581-035-R-J1 cell line growth inhibition;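 also: spheroids exposed to compounds for 7 days before viability read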
stated conditions: curve of first compound; second compound 10 µM; spheroids with HUVEC and MSC

# annotated cases, reported IC50 shown
> print(dat)
                                   molecule  recorded.value
1  Cc1sc2c(c1C)C(c1ccc(Cl)cc1)=NC(CC(=O)Nc1ccc(O)cc1)c1nnc(C)n1-2 (stereo unspecified) + Cn1nnc2c(C(N)=O)ncn2c1=O          > 3 µM
2  COc1cc(C)[nH]c(=O)c1CN1CCc2c(Cl)cc(C(OC)C3COC3)c(Cl)c2C1=O (stereo unspecified) + Cn1nnc2c(C(N)=O)ncn2c1=O         > 10 µM
3  Cn1ncnc1[C@H]1c2n[nH]c(=O)c3cc(F)cc(c23)N[C@@H]1c1ccc(F)cc1 + Cn1nnc2c(C(N)=O)ncn2c1=O          > 3 µM
4  O=C(c1cc(Cc2n[nH]c(=O)c3ccccc23)ccc1F)N1CCN(C(=O)C2CC2)CC1 + Cn1nnc2c(C(N)=O)ncn2c1=O         > 30 µM
5  CC1COCCN1c1cc(-c2ccnn2C)c2ccnc(-c3ccn[nH]3)c2n1 (stereo unspecified) + Cn1nnc2c(C(N)=O)ncn2c1=O        0.679 µM

Switching to the query record.
[in] Please give the measured IC50 for this molecule: CC(C)n1c(=O)n(C)c2cnc3cc(F)c(-c4ccc(OCCCN5CCCCC5)nc4)cc3c21 + Cn1nnc2c(C(N)=O)ncn2c1=O
[out] > 10 µM

###

Test system: 556581-035-R-J1 tumor spheroid viability, % test/control
assay protocol: Anticancer human tumor 556581-035-R-J1 cell line growth inhibition;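 also: spheroids exposed to compounds for 7 days before viability read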
stated conditions: second compound 1 µM; first compound 0.1 µM; stronger effect = lower value; spheroids with HUVEC and MSC
property label: viability, T/C (%)
Just the number in %, nothing appended.

# annotated cases, reported viability, T/C shown
> print(dat)
                                   molecule  recorded.value
1  [2H]c1nc(C)nc([2H])c1-c1cc(NC[C@@H](C)c2cccc3c(C(=O)NC)ccnc23)ncn1 + Cn1nnc2c(C(N)=O)ncn2c1=O             111
2  COc1cc(C)[nH]c(=O)c1CN1CCc2c(Cl)cc(C(OC)C3COC3)c(Cl)c2C1=O (stereo not drawn) + Cn1nnc2c(C(N)=O)ncn2c1=O             102

[in] Please give the measured viability, T/C for this molecule: Cc1cc(C)c(CNC(=O)c2cc(-c3ccc(CN4CCOCC4)cc3)cc3c2cnn3C2CCCC2)c(=O)[nH]1 + Cn1nnc2c(C(N)=O)ncn2c1=O
[out] 107
